FYI, the data here is from PubChem BioAssay (NCATS).

# test_description: qHTS profiling for inhibitors of Plasmodium falciparum proliferation (AID 504749);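 further: 0% = DMSO vehicle and full inhibition = artemisinin control; nearly all actives have a fitted effect of over 60% in size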
# test_context: P. falciparum in erythrocytes, SYBR Green DNA, 72 h; at 28.7 µM (top of the series); parasite line B
Records with an inconclusive call do not appear. The source made the active and inactive calls. The call rests on the fitted dose curve; in most records, active means well fitted inhibition curve with a large enough effect; inconclusive means small, poorly fitted or top-dose-only effect; inactive means flat fitted curve, though single readings scatter.

compound | activity, negative = inhibition
CC(C)(O)C1C2OC(=O)C1C1(O)CC3OC34C(=O)OC2C14C (stereo not drawn) | 0.0355% (inactive)
c1ccc2sc(SNC3CCCCC3)nc2c1 | 2.42% (inactive)
CCN(CC)C(=O)/C(Cl)=C(\C)OP(=O)(OC)OC | 3.3% (inactive)
C[N+]1(C)CCCCC1COC(=O)C(O)(c1ccccc1)c1ccccc1 (stereo not drawn) | -9.17% (inactive)
Cn1sc(Cl)cc1=O | 7.44% (inactive)
O=C1CN(O)C(c2ccccc2)=c2cc(Cl)ccc2=N1 | 1.2% (inactive)
CCCCCl | 10.6% (inactive)
CCC1(c2ccccc2)C(=O)NC(=O)NC1=O | 9.88% (inactive)
O=[N+]([O-])C(Br)(CO)CO | -7.41% (inactive)
CCOP(=O)(OCC)O/C(=C/Cl)c1ccc(Cl)cc1Cl | -21.8% (inactive)
CC(C)CCON=O | -11.8% (inactive)
CCCC(C)(COC(N)=O)COC(=O)NC1CC1 (stereo not drawn) | 1.21% (inactive)
C=CCC1(C(C)CCC)C(=O)N=C(S)NC1=O (stereo not drawn) | -5% (inactive)
N#CC1(N2CCCCC2)CCCCC1 | 1.5% (inactive)
NCC(O)c1cccc(O)c1 (stereo not drawn) | 12% (inactive)
CNC(C)C(O)c1ccc(O)cc1 (stereo not drawn) | -1.7% (inactive)
ClC(Cl)(Cl)Cl | 5.77% (inactive)
Cc1sc2ccccc2c1CC1=NCCN1 | -2.48% (inactive)
O=C/C=C/c1ccccc1 | -11% (inactive)
C=CCN=C=S | 7.56% (inactive)
O=[N+]([O-])c1ccc(F)c([N+](=O)[O-])c1 | 11.6% (inactive)
CN1CCCC(=C(c2cccs2)c2cccs2)C1 | -19.2% (inactive)
O=C1CCCCC1CN1CCCCC1 (stereo not drawn) | 5.73% (inactive)
C=CCN1CC[C@]23c4c5ccc(O)c4O[C@H]2[C@@H](O)C=C[C@H]3[C@H]1C5 | 6.2% (inactive)
CCOc1ccc2c3c1O[C@H]1[C@@H](O)C=C[C@H]4[C@@H](C2)N(C)CC[C@@]341 | -4.11% (inactive)
CCCCCCCCCC(=O)O[C@H]1CC[C@H]2[C@@H]3CCC4=CC(=O)CC[C@]4(C)[C@H]3CC[C@]12C | -5.1% (inactive)
O=[N+]([O-])c1cc(I)c(O)c(I)c1 | -20.5% (inactive)
COC([CH2][Hg])CNC(=O)c1ccccc1OCC(=O)O (stereo not drawn) | 2.49% (inactive)

###

# test_description: Primary qHTS for inhibitors of nuclear receptor binding SET domain protein 2 (NSD2) in an isogenic RCH-ACV NSD2 p.E1099K mutant (9B) (AID 1645876); further: nearly all actives have a fitted effect of over 70% in size
# test_context: RCH-ACV (leukaemia line) NSD2 E1099K (9B) viability, CellTiter-Glo, 72 h; series mostly up to 44.9 µM
Records with an inconclusive call do not appear. Activity calls are given as the source filed them. Calls follow the shape of the dose curve; as a rule, active = well fitted inhibition curve with a large enough effect; inconclusive = small, poorly fitted or top-dose-only effect; inactive = flat fitted curve, though single readings scatter.
Outcome codes: Y = active, N = inactive

compound | label_class
C[C@]12CC[C@H]3[C@@H]([C@H](O)CC4=CC(=O)CC[C@@]43C)[C@@H]1CC[C@@H]2O | N
CN1[C@H]2C[C@H](OC(=O)[C@H](CO)c3ccccc3)C[C@@H]1[C@@H](O)C2 | N
CC(CCc1ccc(O)cc1)O[C@@H]1O[C@H](CO[C@H]2OC[C@](O)(CO)[C@H]2O)[C@@H](O)[C@H](O)[C@H]1O (stereo partly specified) | N
CC[C@H]1CN2CC[C@H]1C[C@@H]2[C@@H](O)c1ccnc2ccc(OC)cc12 | N
C/C(=C\c1csc(C)n1)[C@@H]1C[C@@H]2O[C@]2(C)CCC[C@H](C)[C@H](O)[C@@H](C)C(=O)C(C)(C)[C@@H](O)CC(=O)O1 | Y
CC(=O)O[C@H]1C[C@@H](OC(C)=O)C(C)(C)C2C[C@@H](O)[C@]3(C)C(CC[C@@]4(C)[C@H](C5=CC(=O)OC5O)C[C@H]5O[C@]543)[C@]21C (stereo partly specified) | N
COC(=O)C1(C)CCC(O)C2(C)c3cc(O)c(C(C)C)cc3C(O)C(OC(C)=O)C12 (stereo unspecified) | N
C[C@@]1(C(=O)O)CC[C@]2(C)CC[C@]3(C)C4=CC(=O)c5cc(O)c(O)cc5[C@]4(C)CC[C@@]3(C)[C@@H]2C1 | N
Clc1ccc(N2C[C@H]3CC[C@@H](C2)N3)nn1 | N
CC1=C2C(=O)C3[C@@H](CC=C4C[C@@H](O)CC[C@@]43C)[C@@H]2CC[C@]12O[C@@H]1C[C@H](C)CN[C@H]1[C@H]2C (stereo partly specified) | N
CC(C)=C1CC[C@]23CO[C@H](C2)[C@@](O)(C(=O)O)CCC13 (stereo partly specified) | N
COC1CC(OC2CCC3(C)C(CCC4C3CCC3(C)C(C5=CC(=O)OC5)C(OC(C)=O)CC43O)C2)OC(C)C1OC1OC(CO)C(O)C(O)C1O (stereo unspecified) | Y
COC(=O)C1(C)CCC(O)C2(C)c3c(O)cc(C(C)C)cc3C(O)C(OC(C)=O)C12 (stereo unspecified) | N
CCC(C)(OC(C)=O)C(=O)O[C@H]1[C@H](OC(C)=O)C[C@@H]2[C@@](C)([C@@H]3C[C@H]4C=CO[C@H]4O3)[C@H](C)C[C@H](OC(C)=O)[C@@]2(COC(C)=O)[C@@]12CO2 (stereo partly specified) | N
CC(=O)OC1CC(O)C2(C)C(CC(OC(C)=O)C3(C)C2CCC2(C)C(c4ccoc4)C(=O)C4OC423)C1(C)C (stereo unspecified) | N
CN1[C@@H]2CC[C@H]1CC(OC(=O)C1C=Nc3ccccc31)C2 (stereo partly specified) | N
